Test: Toxicity Test 1 (oral, mortality 24 hours after administration)
Conditions: mouse, in vivo, 300 mg/kg (P.O), 2 to 4 mice per group, read-out: Mortality Rate (%)
Metric name: mortality at 24 h (%)
Give bare numbers, in %.

As a guide, the following entries are already answered.
| Smiles repr | mortality at 24 h / % |
| --- | --- |
| CC(=O)c1cc(Cl)ccc1OCCCN1CCN(c2cc(=O)n(C)c(=O)n2C)CC1 | 50 |
| COC(=O)c1ccccc1OCCCN1CCN(c2cc(=O)n(C)c(=O)n2C)CC1 | 0 |
| Cn1c(N2CCN(CCCCOc3ccc(Cl)cc3)CC2)cc(=O)n(C)c1=O | 0 |

# batch size: 6; output mortality at 24 h per entry
1. CC(=O)c1ccc(OCCCN2CCN(c3cc(=O)n(C)c(=O)n3C)CC2)cc1
2. Cn1c(N2CCN(CCCOc3ccc(C(F)(F)F)cc3)CC2)cc(=O)n(C)c1=O
3. Cn1c(N2CCN(CCCOc3ccc(S(C)(=O)=O)cc3)CC2)cc(=O)n(C)c1=O
4. Cn1c(N2CCN(CCCOc3ccccc3N)CC2)cc(=O)n(C)c1=O
5. Cn1c(N2CCN(CCCOc3ccc(-n4cncn4)cc3)CC2)cc(=O)n(C)c1=O
6. Cn1c(N2CCN(CCCOc3ccc(Cl)cc3)CC2)cc(=O)n(C)c1=O

Result:
0
50
0
0
0
0

Query: What does the data say about its mortality at 24 h? Entry: `CC(=O)c1ccccc1CCN1CCN(c2cc(=O)n(C)c(=O)n2C)CC1`
Result: 0

From: patent US5332739A
